test system: WI-38; test: Cytotoxicity assay (Cytell Cell Imaging, DAPI/propidium iodide); assay type: cell-based; conditions: cytotoxic activity, normal human lung fibroblasts, read-out: IC50 Normal Cell Line WI-38
Provide the reported IC50 of each item.

Worked set:
Cc1cc(=O)n(CCCCc2cn(C3OC(CO)C(O)C3O)nn2)c(=O)n1CCCCc1cn(C2OC(CO)C(O)C2O)nn1 (centres unmarked) [Compound 2i] | > 100 µM
O=c1c2nc3ccccc3nc2n(CCCCc2cn(C3OC(CO)C(O)C3O)nn2)c(=O)n1CCCCc1cn(C2OC(CO)C(O)C2O)nn1 (centres unmarked) [Compound 5i] | > 100 µM
CC(=O)OCC1OC(n2cc(CCCCn3c(=O)c4nc5ccccc5nc4n(CCCCc4cn(C5OC(COC(C)=O)C(OC(C)=O)C5OC(C)=O)nn4)c3=O)nn2)C(OC(C)=O)C1OC(C)=O (centres unmarked) [Compound 5f] | > 100 µM
O=c1[nH]cc(F)c(=O)[nH]1 [5-Fluorouracil, reference compound] | 82.5 µM

Incoming: For CC(=O)OCC1OC(n2cc(CCCCn3c(C)cc(=O)n(CCCCc4cn(C5OC(COC(C)=O)C(OC(C)=O)C5OC(C)=O)nn4)c3=O)nn2)C(OC(C)=O)C1OC(C)=O (centres unmarked) [Compound 2f] , what is its reported IC50?
Outgoing: > 100 µM

====

test system: PC-3; experiment: Cytotoxicity assay (Cytell Cell Imaging, DAPI/propidium iodide); type: cell-based; conditions: cytotoxic activity, human prostate adenocarcinoma, read-out: IC50 Cancer Cell Lines PC-3
measured property: IC50

Cc1cc(=O)n(CCCCc2cn(C3OC(CO)C(O)C3O)nn2)c(=O)n1CCCCc1cn(C2OC(CO)C(O)C2O)nn1 (stereo not drawn) [Compound 2i] | > 100 µM

# batch size: 2; output IC50 per entry
1. O=c1c2nc3ccccc3nc2n(CCCCc2cn(C3OC(CO)C(O)C3O)nn2)c(=O)n1CCCCc1cn(C2OC(CO)C(O)C2O)nn1 (stereo not drawn) [Compound 5i]
2. CC(=O)OCC1OC(n2cc(CCCCn3c(C)cc(=O)n(CCCCc4cn(C5OC(COC(C)=O)C(OC(C)=O)C5OC(C)=O)nn4)c3=O)nn2)C(OC(C)=O)C1OC(C)=O (stereo not drawn) [Compound 2f]

Outgoing:
["> 100 µM", "> 100 µM"]
